The reported numbers originate from the supplement of paper PMC10037445.

Tested on: RAW-Dual
Assay: NF-kB SEAP reporter activity, fold change vs agonist alone; cytotoxicity flag (confluency mask): not cytotoxic; higher = enhanced NF-kB activity
Conditions: agonist: ODN 1826 (TLR9) 0.5 ug/mL
In all, about 2,900 compounds were measured (“NF-kB SEAP reporter activity, fold change vs agonist alone”: median about 0.99, highest 2% from about 2.6 on). The entries come from a sample that favours the highest values as a whole.
Recorded NF-kB SEAP reporter activity for the following molecules
Answer as a number with no unit attached.

{"MOLECULE": "Cl.O=c1[nH]ccc2c(S(=O)(=O)N3CCCNCC3)cccc12 (library stock concentration (final ~1000-fold dilution): 10 mM)", "QUANTITY_KIND": "NF-kB SEAP reporter activity", "TEST_VALUE": 0.968}
{"MOLECULE": "Cc1ccc(-c2c(-c3nn(C)c4ncnc(N5CCC(N6CCCCC6)C5)c34)cnn2C)cc1 (stereo not drawn) (library stock concentration (final ~1000-fold dilution): 10 mM)", "QUANTITY_KIND": "NF-kB SEAP reporter activity", "TEST_VALUE": 0.856}

Given item CC(C)C(C(=O)O)N1C(=O)/C(=C/c2ccc(Br)cc2)SC1=S (stereo not drawn) (library stock concentration (final ~1000-fold dilution): 10 mM) , the value recorded as its NF-kB SEAP reporter activity is 0.953

----------
Reported NF-kB SEAP reporter activity values for a set of compounds
Tested on: RAW-Dual
Assay: NF-kB SEAP reporter activity, fold change vs agonist alone; cytotoxicity flag (confluency mask): not cytotoxic; higher = enhanced NF-kB activity
Settings: agonist: Pam3CSK4 (TLR2/1) 0.1 ug/mL
In all, about 2,900 compounds were measured (“NF-kB SEAP reporter activity, fold change vs agonist alone”: median about 0.99, highest 2% from about 2.6 on). The sample holds the highest values, similar compounds and a random draw of the others, so the mix is not that of the screen.
In your answer, state the number alone without any accompanying words.

The examples below pair each entry with its known result.
{"COMPOUND": "CC(C)(Cc1ccc2ccccc2c1)NCC(O)COc1cccc(Cl)c1C#N (stereo not given) (library stock concentration (final ~1000-fold dilution): 10 mM)", "TEST_VALUE": 1.03}
{"COMPOUND": "CCOc1cc(C(CS(C)(=O)=O)N2C(=O)c3cccc(NC(C)=O)c3C2=O)ccc1OC (stereo not given) (library stock concentration (final ~1000-fold dilution): 10 mM)", "TEST_VALUE": 1.72}
{"COMPOUND": "Cc1ccc(-n2nc(C(C)(C)C)cc2NC(=O)Nc2ccc(OCCN3CCOCC3)c3ccccc23)cc1 (library stock concentration (final ~1000-fold dilution): 10 mM)", "TEST_VALUE": 0.226}
{"COMPOUND": "CCOC(=O)Nc1cc(-c2ccc(C)c(NS(C)(=O)=O)c2)nn2c(C)nnc12 (library stock concentration (final ~1000-fold dilution): 10 mM)", "TEST_VALUE": 1.44}

response.value for CC(C)Oc1ccc(C(=O)NC(CNC(=O)CN(C)C)Cc2ccc(-c3cn4cccc(C(C)O)c4n3)cc2)cc1Cl (stereo not given) (library stock concentration (final ~1000-fold dilution): 10 mM) (field: NF-kB SEAP reporter activity) = 1.03

----------
Tested on: RAW-Dual
Test: NF-kB SEAP reporter activity, fold change vs agonist alone; cytotoxicity flag (confluency mask): not cytotoxic; higher = enhanced NF-kB activity
Conditions: agonist: ODN 1826 (TLR9) 0.5 ug/mL
Over roughly 2,900 compounds, “NF-kB SEAP reporter activity, fold change vs agonist alone” has its median near 0.99; the highest 2% begin near 2.6. The list comes from a sample in which the highest values are over-represented; it also holds close analogues and randomly drawn compounds.
Think of 0.9 as a floor: if NF-kB SEAP reporter activity stands on it or above, it is 1 (yes); beneath it, 0 (no).

{"COMPOUND": "CCNC1(C(N)=O)CCN(c2ncnc3c2nc(-c2ccccc2Cl)n3-c2ccc(Cl)cc2)CC1.Cl (library stock concentration (final ~1000-fold dilution): 2 mM)", "LABEL": "0 (no)"}

input: # bool: NF-kB SEAP reporter activity of O=C(O)CC(C(=O)O)N1C(=O)/C(=C2/C(=O)Nc3ccc(Br)cc32)SC1=S (stereo not given) (library stock concentration (final ~1000-fold dilution): 10 mM) >= 0.9
output: 1 (yes)

input: Determine whether measured NF-kB SEAP reporter activity meets or exceeds 0.9 for O=C1c2c(O)cc(O)cc2OC(c2cc(O)c(O)c(O)c2)C1O (stereo not given) (library stock concentration (final ~1000-fold dilution): 10 mM)
output: 1 (yes)

input: Please check the record Cl.Nc1ccc(N=Nc2ccccc2)c(N)n1 (library stock concentration (final ~1000-fold dilution): 10 mM) and state if its NF-kB SEAP reporter activity is at or above 0.9.
output: 1 (yes)
